# subject.of.test: T1, Anti-PSMA Fab (SEQ ID NOs: 19, 20)
# T1 construct: Biotinylated and captured on neutravidin coated plates in the phage ELISA; also called 006 PSMA Fab
# assay.remarks: phage binding ELISA on captured PSMA Fab; wells pre-incubated with PSMA antigen as competitor
attribute.measured: Anti-PSMA Fab signal in the presence of PSMA
Just the number.

-- ask Give recorded Anti-PSMA Fab signal in the presence of PSMA. FDNWCKPSWMCAGL (tested as crude clonal phage supernatant) [Phage-1975]
-- reply 0.0863

-- ask Give recorded Anti-PSMA Fab signal in the presence of PSMA. LPKWCTPEWMCIGF (tested as crude clonal phage supernatant) [Phage-1979]
-- reply 0.113

-- ask Give recorded Anti-PSMA Fab signal in the presence of PSMA. VMNWCTPVWMCQGF (tested as crude clonal phage supernatant) [Phage-1971]
-- reply 0.115

-- ask Give recorded Anti-PSMA Fab signal in the presence of PSMA. FDKWCIPEWMCAVL (tested as crude clonal phage supernatant) [Phage-1973]
-- reply 0.0682

Reference source for all entries: patent US20260242478A1
